meta.source: patent US20210155689A1

- targetSystem: T1, human LAG-3 on cells (HEK293-hLAG-3 stable cell line) (human, UniProt P18627 23-525)
- T1 sequence: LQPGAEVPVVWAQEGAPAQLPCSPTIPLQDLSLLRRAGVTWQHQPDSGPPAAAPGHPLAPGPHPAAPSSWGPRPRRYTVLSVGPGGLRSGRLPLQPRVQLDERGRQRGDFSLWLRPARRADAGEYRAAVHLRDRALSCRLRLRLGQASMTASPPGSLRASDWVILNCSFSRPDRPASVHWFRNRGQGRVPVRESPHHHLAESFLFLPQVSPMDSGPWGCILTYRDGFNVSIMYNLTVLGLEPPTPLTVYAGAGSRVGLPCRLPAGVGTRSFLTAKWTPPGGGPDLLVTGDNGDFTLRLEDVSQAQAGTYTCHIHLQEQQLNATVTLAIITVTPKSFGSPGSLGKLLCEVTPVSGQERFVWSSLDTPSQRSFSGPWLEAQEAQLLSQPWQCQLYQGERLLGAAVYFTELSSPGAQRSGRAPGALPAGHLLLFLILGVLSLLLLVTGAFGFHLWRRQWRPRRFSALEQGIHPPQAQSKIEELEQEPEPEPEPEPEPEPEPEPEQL
- assayInfo: FACS, HEK293-hLAG-3, antibody 200.000 nM
Could you please report measured Mean fluorescence intensity for the items listed next?
Lab note: record just the number, no unit beside it.

# input Consider the binder 409B11E12 mouse-human chimeric antibody (antibody, V domains shown, also called mAb104-409B11E12) VH: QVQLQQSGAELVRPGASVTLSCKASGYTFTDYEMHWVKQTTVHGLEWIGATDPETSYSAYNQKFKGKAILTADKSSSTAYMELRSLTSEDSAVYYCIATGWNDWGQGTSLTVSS VL: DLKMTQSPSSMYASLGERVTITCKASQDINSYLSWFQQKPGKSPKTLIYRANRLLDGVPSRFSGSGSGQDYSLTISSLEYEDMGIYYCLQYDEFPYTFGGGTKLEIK and give its measured Mean fluorescence intensity.
# output 171

# input GET /values?readout=Mean fluorescence intensity&item= 409D4E10 mouse-human chimeric antibody (antibody, V domains shown, also called mAb112-409D4E10) VH: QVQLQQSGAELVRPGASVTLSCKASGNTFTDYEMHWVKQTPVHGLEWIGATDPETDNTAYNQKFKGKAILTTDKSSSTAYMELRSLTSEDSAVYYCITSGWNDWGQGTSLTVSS VL: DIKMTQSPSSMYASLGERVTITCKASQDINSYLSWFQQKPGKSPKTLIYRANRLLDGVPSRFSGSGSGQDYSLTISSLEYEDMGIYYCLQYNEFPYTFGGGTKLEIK
# output 151

# input Mean fluorescence intensity for 405B8H3 mouse-human chimeric antibody (antibody, V domains shown, also called mAb103-405B8H3) VH: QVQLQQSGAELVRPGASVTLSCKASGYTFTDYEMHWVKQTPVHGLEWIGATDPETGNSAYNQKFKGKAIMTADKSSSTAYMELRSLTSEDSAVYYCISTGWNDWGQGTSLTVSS VL: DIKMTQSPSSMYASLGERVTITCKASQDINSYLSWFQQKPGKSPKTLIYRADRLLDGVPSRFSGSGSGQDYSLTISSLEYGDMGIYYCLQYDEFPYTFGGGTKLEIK ?
# output 169
